target: wild type EGFR (Homo sapiens, UniProt P00533); construct: purchased Reaction Biology Corp. (Malvern, PA, USA); assay: radiometric ([γ-33P]-ATP) kinase assay, wild-type EGFR; type: biochemical; conditions: Table 1; mean ± standard deviations of two experiments; read-out: IC50 Wild Type
Sequence (P00533 25-1210): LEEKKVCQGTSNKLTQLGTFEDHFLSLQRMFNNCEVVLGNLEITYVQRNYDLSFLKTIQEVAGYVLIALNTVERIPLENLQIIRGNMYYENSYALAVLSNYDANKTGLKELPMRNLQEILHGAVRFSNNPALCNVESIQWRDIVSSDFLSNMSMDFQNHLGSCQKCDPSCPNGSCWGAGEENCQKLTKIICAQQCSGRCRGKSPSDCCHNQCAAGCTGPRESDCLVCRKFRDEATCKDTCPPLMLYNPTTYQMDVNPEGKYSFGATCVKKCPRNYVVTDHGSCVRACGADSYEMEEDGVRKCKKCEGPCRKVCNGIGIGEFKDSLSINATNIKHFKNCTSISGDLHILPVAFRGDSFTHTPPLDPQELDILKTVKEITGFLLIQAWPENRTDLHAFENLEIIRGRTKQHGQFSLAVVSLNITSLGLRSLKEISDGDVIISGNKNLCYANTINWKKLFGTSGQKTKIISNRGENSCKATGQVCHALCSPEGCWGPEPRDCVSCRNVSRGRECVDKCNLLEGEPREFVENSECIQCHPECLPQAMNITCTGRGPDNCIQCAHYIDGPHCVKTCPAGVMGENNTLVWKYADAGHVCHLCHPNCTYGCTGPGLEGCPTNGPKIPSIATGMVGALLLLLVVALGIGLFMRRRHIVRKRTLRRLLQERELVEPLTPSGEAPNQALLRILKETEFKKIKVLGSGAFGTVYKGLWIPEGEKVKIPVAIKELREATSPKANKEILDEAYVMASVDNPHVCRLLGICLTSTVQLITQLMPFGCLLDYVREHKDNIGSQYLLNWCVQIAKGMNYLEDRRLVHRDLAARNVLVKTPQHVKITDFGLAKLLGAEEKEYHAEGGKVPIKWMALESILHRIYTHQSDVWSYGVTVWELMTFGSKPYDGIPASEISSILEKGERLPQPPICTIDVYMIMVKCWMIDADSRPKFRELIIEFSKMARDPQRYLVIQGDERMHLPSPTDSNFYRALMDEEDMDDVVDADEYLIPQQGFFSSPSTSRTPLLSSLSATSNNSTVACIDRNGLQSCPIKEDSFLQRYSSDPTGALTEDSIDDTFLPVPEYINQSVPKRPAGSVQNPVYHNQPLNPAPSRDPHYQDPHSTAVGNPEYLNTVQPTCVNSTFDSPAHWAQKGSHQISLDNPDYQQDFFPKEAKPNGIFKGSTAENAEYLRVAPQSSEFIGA
Quick reference for pIC50 among some compounds
Lab note: report pIC50 as minus log10 of the concentration in molar units, number only.

So, c1ccc(CNc2ncnc3oc(-c4ccccc4)c(-c4ccccc4)c23)cc1 [Compound 4] ? Its pIC50 was 8.23

The reported value for CC1CCCCN1Cc1c(O)ccc2c1O/C(=C\c1cc3ccccc3o1)C2=O (stereo not shown) [Compound 1] in terms of pIC50 is 4.14

Short answer for COc1ccccc1Nc1nc(N)nc(-c2oc3ccccc3c2C)n1 [Compound 3] : pIC50 was 4.45

Next:
Data point: Oc1ccccc1-c1nc(NCCN2CCOCC2)c2ccccc2n1 [Compound 2] ; pIC50 = 4.43
